# MEASUREMENT_TARGET: HIV-1 Env of isolate 92UG046 (subtype D) (HIV-1)
# MEASUREMENT_DESCRIPTION: cell-based or functional assay
ENDPOINT: IC50 (neutralization)

Prompt line: Identify measured IC50 (neutralization) corresponding to PGT-130 (antibody, V domains shown) VH: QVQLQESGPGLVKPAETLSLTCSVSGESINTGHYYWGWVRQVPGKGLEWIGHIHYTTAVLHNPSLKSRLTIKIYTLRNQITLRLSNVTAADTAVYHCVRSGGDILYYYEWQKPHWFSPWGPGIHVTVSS VL: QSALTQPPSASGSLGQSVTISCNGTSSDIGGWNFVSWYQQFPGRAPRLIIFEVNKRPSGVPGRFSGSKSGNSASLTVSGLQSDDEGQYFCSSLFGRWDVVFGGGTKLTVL
Response line: > 50 µg/mL

Now look at this one.
Prompt line: Identify measured IC50 (neutralization) corresponding to PGT-127 (antibody, V domains shown) VH: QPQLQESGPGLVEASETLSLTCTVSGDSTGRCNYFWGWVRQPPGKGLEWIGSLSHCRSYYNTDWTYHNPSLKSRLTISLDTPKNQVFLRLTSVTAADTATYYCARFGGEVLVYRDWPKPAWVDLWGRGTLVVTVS VL: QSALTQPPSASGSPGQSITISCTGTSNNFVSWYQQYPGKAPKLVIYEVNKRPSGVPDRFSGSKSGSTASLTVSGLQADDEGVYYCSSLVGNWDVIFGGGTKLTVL
Response line: > 50 µg/mL

Hey, just so you know, these numbers are from patent US20160264649A1.
